- TESTED TARGET: chicken gizzard smooth muscle myosin subfragment-1 chemically crosslinked to either cardiac or skeletal actin (Gallus gallus, UniProt P10587)
Measured IC50 by item
Give the value; after it, write the unit.

Worked set:
CS(=O)(=O)N1CC=C(c2ccc(C(=O)NCc3cccnc3)c(NCCc3cccc(F)c3)n2)CC1	6.4 µM
CC1CCN(c2ccc(C(=O)NCc3cccnc3)c(NCCc3ccccn3)n2)CC1	14.3 µM
O=C(NCc1cccnc1)c1ccc(N2CCC(O)(c3ccccc3)CC2)nc1NCCc1cccc(F)c1	16.7 µM

Okay, next one:
Exercise: Provide measured IC50 value, entry: O=C(NCc1cccnc1)c1ccc(N2CC[C@@H](O)C2)nc1NCCc1cccc(F)c1
Key: 0.533 µM

* * *

- TESTED TARGET: chicken gizzard smooth muscle myosin subfragment-1 chemically crosslinked to either cardiac or skeletal actin (Gallus gallus, UniProt P10587)
- Construct: chicken gizzard smooth muscle myosin subfragment-1; from tissue; host or cells: chicken gizzard
- ASSAY INFO: Dose dependent smooth muscle myosin ATPase modulation (pyruvate kinase/horseradish peroxidase/pyruvate oxidase-coupled ATPase assay)
- Format: biochemical
- CONDITION PARAMETERS: read-out: IC50 Arithmetic Mean
PROPERTY: pIC50
Remember the convention: pIC50 equals -log10 of concentration in molar.

Worked set:
N[C@H]1CCN(c2ccc(C(=O)NCc3cccnc3)c(NCCc3cccc(F)c3)n2)C1 [Compound 30]	4.55
O=C(NCc1cccnc1)c1ccc(N2CCC(C(F)(F)F)C2)nc1NCCc1cccc(F)c1 (stereo not shown) [Compound 99]	5.60
COC(=O)N1CC=C(c2ccc(C(=O)NCc3cccnc3)c(NCCc3cccc(F)c3)n2)CC1 [Compound 61]	7.00

Exercise: Provide measured pIC50 value, entry: O=C(NCc1cccnc1)c1ccc(N2CCC(N3CCCCC3)CC2)nc1NCCc1cccc(F)c1 [Compound 124]
Key: 4.53

Exercise: Provide measured pIC50 value, entry: CN(C)C(=O)N1CC=C(c2ccc(C(=O)NCc3cccnc3)c(NCCc3cccc(F)c3)n2)CC1 [Compound 69]
Key: 6.35

Exercise: Provide measured pIC50 value, entry: O=C(O)CC1CCN(c2ccc(C(=O)NCc3cccnc3)c(NCCc3cccc(F)c3)n2)C1 (stereo not shown) [Compound 95]
Key: 5.25

Exercise: Provide measured pIC50 value, entry: NCc1ncccc1CNC(=O)c1ccc(N2CCCCC2)nc1NCCc1cccc(F)c1 [Compound 40]
Key: 7.18

Exercise: Provide measured pIC50 value, entry: NCc1ncccc1CNC(=O)c1cc(F)c(N2CC[C@@H](O)C2)nc1NCCc1cccc(F)c1 [Compound 55]
Key: 6.90

Exercise: Provide measured pIC50 value, entry: CNC(=O)CNC(=O)c1ccc(N2CCCCC2)nc1NCCc1cccc(F)c1 [Compound 106]
Key: 5.95

Exercise: Provide measured pIC50 value, entry: O=C(NCc1cccnc1)c1ccc(N2CCOC(CO)C2)nc1NCCc1cccc(F)c1 (stereo not shown) [Compound 119]
Key: 5.14

Exercise: Provide measured pIC50 value, entry: NCCCN1C(=O)CC[C@@H]1CNC(=O)c1cc(F)c(N2CCCC2)nc1NCCc1cccc(F)c1 [Compound 52]
Key: 6.93

Exercise: Provide measured pIC50 value, entry: COC[C@@H]1CCCN1c1ccc(C(=O)NCc2cccnc2)c(NCCc2cccc(F)c2)n1 [Compound 108]
Key: 4.17

Exercise: Provide measured pIC50 value, entry: NC(=O)CCNC(=O)c1ccc(N2CC[C@@H](O)C2)nc1NCCc1cccc(F)c1 [Compound 17]
Key: 4.80

Exercise: Provide measured pIC50 value, entry: O=C(NCc1cccnc1)c1ccc(N2CCNCC2)nc1NCCc1cccc(F)c1 [Compound 116]
Key: 4.50

Exercise: Provide measured pIC50 value, entry: N[C@@H]1CCN(c2ccc(C(=O)NCc3cccnc3)c(NCCc3cccc(F)c3)n2)C1 [Compound 46]
Key: 4.45

Exercise: Provide measured pIC50 value, entry: O=C(NCc1cccnc1)c1ccc(N2CCC2)nc1NCCc1cccc(F)c1 [Compound 32]
Key: 5.93

* * *

Measured pIC50 by item
- TESTED TARGET: chicken gizzard smooth muscle myosin subfragment-1 chemically crosslinked to either cardiac or skeletal actin (Gallus gallus, UniProt P10587)
Remember the convention: pIC50 equals -log10 of concentration in molar.

Worked set:
NC[C@@H]1CCN(c2ccc(C(=O)NCc3cccnc3)c(NCCc3cccc(F)c3)n2)C1 [Compound 11]	4.77
CC(C)(C)OC(=O)NCc1ncccc1CNC(=O)c1cc(F)c(N2CC[C@@H](F)C2)nc1NCCc1cccc(F)c1 [Compound 65]	5.08
NCc1ncccc1CNC(=O)c1ccc(N2CC[C@H](F)C2)nc1NCCc1cccc(F)c1 [Compound 38]	7.05
NCc1ncccc1CNC(=O)c1ccc(C2=CCCC2)nc1NCCc1cccc(F)c1 [Compound 37]	7.84
O=C(NCc1cccnc1)c1ccc(N2CC[C@H](F)C2)nc1NCCc1cccc(F)c1 [Compound 113]	6.37
O=C(NCc1cccnc1)c1ccc(N2CCCCC2)nc1NCCc1cccc(F)c1 [Compound 0]	6.43
CNC(=O)C1CCN(c2ccc(C(=O)NCc3cccnc3)c(NCCc3cccc(F)c3)n2)CC1 [Compound 114]	4.96

Okay, next one:
Exercise: Provide measured pIC50 value, entry: NCc1ncccc1CNC(=O)c1ccc(N2CC[C@@H](F)C2)nc1NCCc1cccc(F)c1 [Compound 39]
Key: 7.50

* * *

- TESTED TARGET: chicken gizzard smooth muscle myosin subfragment-1 chemically crosslinked to either cardiac or skeletal actin (Gallus gallus)
PROPERTY: IC50 (µM)
Return type: number; implicit unit µM.

Exercise: Provide measured IC50 value, entry: NCC1CCN(c2ccc(C(=O)NCc3cccnc3)c(NCCc3cccc(F)c3)n2)CC1
Key: 39.1

Exercise: Provide measured IC50 value, entry: CNC(=O)CNC(=O)c1ccc(C2=CCN(C(=O)OC)CC2)nc1NCCc1cccc(F)c1
Key: 0.627

Exercise: Provide measured IC50 value, entry: O=C(NCc1cccnc1)c1ccc(N2CC[C@@H](F)C2)nc1NCCc1cccc(F)c1
Key: 0.107

Exercise: Provide measured IC50 value, entry: CC(=O)N1CC=C(c2ccc(C(=O)NCc3cccnc3)c(NCCc3cccc(F)c3)n2)CC1
Key: 0.43

* * *

- TESTED TARGET: chicken gizzard smooth muscle myosin subfragment-1 chemically crosslinked to either cardiac or skeletal actin (Gallus gallus, UniProt P10587)
PROPERTY: pIC50
Remember the convention: pIC50 equals -log10 of concentration in molar.

Worked set:
O=C(NCc1cccnc1)c1ccc(N2CCC(F)(F)C2)nc1NCCc1cccc(F)c1	6.56
CCOC(=O)C1CCN(c2ccc(C(=O)NCc3cccnc3)c(NCCc3cccc(F)c3)n2)CC1	5.81

Exercise: Provide measured pIC50 value, entry: NCc1ncccc1CNC(=O)c1ccc(N2CC[C@@H](O)C2)nc1NCCc1cccc(F)c1
Key: 6.49

Exercise: Provide measured pIC50 value, entry: CNC(=O)CNC(=O)c1ccc(N2CCCC2)nc1NCCc1cccc(F)c1
Key: 6.48

* * *

Measured pIC50 by item
- TESTED TARGET: chicken gizzard smooth muscle myosin subfragment-1 chemically crosslinked to either cardiac or skeletal actin (Gallus gallus, UniProt P10587)
- Construct: chicken gizzard smooth muscle myosin subfragment-1; from tissue; host or cells: chicken gizzard
- ASSAY INFO: Dose dependent smooth muscle myosin ATPase modulation (pyruvate kinase/horseradish peroxidase/pyruvate oxidase-coupled ATPase assay)
- Format: biochemical
- CONDITION PARAMETERS: read-out: IC50 Arithmetic Mean
Remember the convention: pIC50 equals -log10 of concentration in molar.

Worked set:
COC(=O)N1CCN=C1c1ccc(C(=O)NCc2cccnc2)c(NCCc2cccc(F)c2)n1 [Compound 50]	4.67
O=C(NCc1cccnc1)c1ccc(C2=NCCN2)nc1NCCc1cccc(F)c1 [Compound 73]	4.25
CNC(=O)CNC(=O)c1ccc(N2CCC(F)C2)nc1NCCc1cccc(F)c1 (stereo in doubt) [Compound 93]	5.97

Exercise: Provide measured pIC50 value, entry: NC(=O)CNC(=O)c1ccc(N2CCCC2)nc1NCCc1cccc(F)c1 [Compound 5]
Key: 5.84

Exercise: Provide measured pIC50 value, entry: CC(=O)N(C)C[C@@H]1CCN(c2ccc(C(=O)NCc3cccnc3)c(NCCc3cccc(F)c3)n2)C1 [Compound 8]
Key: 4.32

Exercise: Provide measured pIC50 value, entry: COC(=O)N[C@@H]1CCN(c2ccc(C(=O)NCc3cccnc3)c(NCCc3cccc(F)c3)n2)C1 [Compound 44]
Key: 5.35

Exercise: Provide measured pIC50 value, entry: O=C(NCc1cccnc1)c1ccc(C2=NCCO2)nc1NCCc1cccc(F)c1 [Compound 35]
Key: 5.82

Exercise: Provide measured pIC50 value, entry: CC(C)(C)OC(=O)NCc1ncccc1CNC(=O)c1cc(F)c(N2CC[C@@H](O)C2)nc1NCCc1cccc(F)c1 [Compound 54]
Key: 5.17
